Tested on: SNB-19 CNS
Measurement Protocol: NCI-60 one-dose screen, 48 h (100 = growth as untreated, 0 = no growth, -100 = all killed)
Conditions Used: 10 µM unless noted
Protocol: Growth inhibition of the SNB-19 human tumor cell line is measured as a screen for anti-cancer activity. Cells are grown in 96 well plates and exposed to the test compound for 48 hours. Compounds are tested at a single concentration, which is 10^-5 M for most compounds. The reported endpoint is percent growth (GI% or GIPRCNT), where numbers from 0 - 100% represent growth inhibition, and numbers from -100% - 0 represent cell death. For example, a value of 40 represents 60% growth inhibition. […]
Compounds without any hit were thinned out: in the full panel of roughly 83,000, 20% have a hit.
# growth annotations
Metric: growth (%)

Compound | Recorded Measurement
CCc1ccc(NC(=O)N[C@@H](Cc2cc(F)cc(F)c2)C(=O)N[C@@H]2C(=O)N3CCC[C@H]3C(=O)N3CCO[C@H](C)[C@H]3C(=O)N[C@@H](CO)C(=O)N3C[C@H](C)C[C@H]3C(=O)O[C@H]2C)c(F)c1 | 26.9
O=[N+]([O-])c1ccc(-c2nnc(SCc3ccc(O)c4ncccc34)o2)cc1 | 22.2
COc1cc(/C=C/C(=O)c2ccc(N3CCN(C)CC3)cc2)ccc1F | 66.9
CCOC(=O)C1=C(C)Nc2nc3ccccc3n2C1c1ccccc1 (centres undefined) | 97.8

----------
Test system: MOLT-4 leukemia
Measurement Protocol: NCI-60 one-dose screen, 48 h (100 = growth as untreated, 0 = no growth, -100 = all killed)
Conditions Used: 10 µM unless noted
The panel holds about 83,000 compounds, 20% with a hit somewhere; the sample as a whole holds those more often.
API: label(entry) gives Yes if the entry's growth is strictly smaller than 80%; on equality or larger values it gives No.

Sample Smiles | Discrete Label
COc1cc(/C=C/C(=O)c2ccc(NC(=O)COc3cccc4cccnc34)cc2)cc(OC)c1OC | Yes
Cc1occc1-c1nc2s/c(=C\c3cn(-c4ccccc4)nc3-c3ccccc3)c(=O)n2n1 | No
O=C(NCCCNc1cc(-c2cn(-c3ccccc3)nc2-c2cccc(O)c2)ccn1)Nc1cc(C(F)(F)F)cc(C(F)(F)F)c1 | Yes
COc1ccc(C(=O)n2cc(C=O)c3ccccc32)cc1 | No
Nc1c(C(=O)c2ccccc2)sc2nc(-c3cnccn3)cc(-c3cccs3)c12 | No
O=C1Nc2cc(OC(F)(F)F)ccc2Oc2ccc(-c3ccnc(N4CC[C@H](O)C4)c3)cc21 | Yes
O=C(Nc1ccccc1)Nc1nc2ccc([N+](=O)[O-])cc2s1 | Yes
COc1ccc2c(ccn2C(=O)N2c3ccccc3Sc3ccccc32)c1 | Yes
COc1ccccc1N1CCN(C2=NN=C(c3cccc(Cl)c3)c3ccccc3C2)CC1 | Yes
CC(C)c1nn(-c2ccccc2)c(N2CCCCC2)c1/C=N/NC(N)=S | No

----------
Test system: HT29 colon
Measurement Protocol: NCI-60 one-dose screen, 48 h
Conditions Used: 10 µM unless noted
Compounds without any hit were thinned out: in the full panel of roughly 83,000, 20% have a hit. Active and inactive are the calls of the source. The calls were made as follows: active = growth percent below 10; inactive = the rest.
Outcomes: active, inactive

Molecule | Discrete Label
O=C(Nc1cccc(-c2nc(-c3ccc(NC(=O)c4cccnc4)cc3Cl)no2)c1)Nc1ccc(NC(=O)C2CC2)c(C(F)(F)F)c1 | active
Nc1n[nH]c2cccc(C#Cc3cccc(NC(=O)c4cccc(OC(F)(F)F)c4)c3)c12 | inactive
CCOC(=O)c1ccc(N/C=C/C(=O)c2ccccc2)cc1 | inactive
CC(C)SC1=NC(=C(C(=N1)NC2=ClC=CC=C2)C#N)C3=CC=CC=C3 | inactive
O=S(=O)(NCCCNc1nccc(-n2cnc3ccccc32)n1)c1ccc(F)cc1 | inactive
O=C(COc1ccc(/C=C2\SC(=O)NC2=O)cc1)Nc1ccc(C(=O)/C=C/c2cc3ccccc3nc2Cl)cc1 | active
O=C(NCCCNc1cc(-c2cn(-c3ccccc3)nc2-c2cccc(O)c2)ccn1)Nc1ccc(F)cc1 | active
COc1ccc(Cn2cc3c(c2-c2cc(OC)c(OC)c(OC)c2)CCCc2cnoc2-3)cc1N | inactive
C(=C(\C1=NCCN1)n1cnc2ccccc21)/c1cccc2ccccc12 | inactive
COc1ccc(-c2nnc(SCc3ccc(O)c4ncccc34)n2-c2ccccc2)cc1 | inactive
CC(=O)NC(C)(C)C(=O)N1CCC[C@H]1C(=O)NC(C)(C)C(=O)N[C@@H](C)C(=O)NC(C)(C)C(=O)NC(C)(C)C(=O)N[C@@H](CCC(N)=O)C(=O)NC(C)(C)C(=O)N[C@H](C(=O)NC(C)(C)C(=O)NCC(=O)N[C@@H](CC(C)C)C(=O)NC(C)(C)C(=O)N1CCC[C@H]1C(=O)N[C@H](C(=O)NC(C)(C)C(=O)NC(C)(C)C(=O)N[C@@H](CCC(N)=O)C(=O)N[C@@H](CCC(N)=O)C(=O)N[C@H](CO)Cc1ccccc1)C(C)C)C(C)C | inactive
C=C(C)[C@@H]1CC[C@]2(C(=O)ON)CC[C@]3(C)[C@H](CC[C@@H]4[C@@]5(C)C/C(=C/c6ccc(Br)cc6)C(=O)C(C)(C)[C@@H]5CC[C@]43C)[C@@H]12 | inactive
COc1ccc(-c2nc3cc(Cl)c(Cl)cc3n2CC(=O)N=Nc2c(O)[nH]c3ccccc23)cc1 | inactive
O=C1Nc2ccc(Cl)cc2/C1=C/c1ccc(OCc2ccc(F)cc2)cc1 | inactive
N#C/C(=C\c1ccc2ccccc2c1)C(=O)Nc1sc2c(c1C#N)CCC2 | inactive
O=C1/C(=C/c2ccc([N+](=O)[O-])cc2)SC(=Nc2ccccc2)N1Nc1ccccc1 | inactive
C=C1C(=O)O[C@@H]2C[C@@H](C)CCC(=O)[C@](C)(OC(C)=O)C[C@H](OC(=O)/C(C)=C\C)[C@@H]12 | inactive
CS(=O)(=O)c1ccc2c(c1)c1c(n2C(=O)c2ccc(Cl)cc2)CCCC1 | active
O=c1oc2ccc(-c3ccc(F)cc3F)cc2c(=O)n1-c1ccc(F)c(F)c1 | inactive
Cc1cnc2nc(NN)[nH]n12 | inactive
C=CCn1c(SCC(=O)Nc2cccc(C(=O)/C=C/c3cc(OC)c(OC)c(OC)c3)c2)nc2ccccc2c1=O | active
Cc1cc(O)c2c(c1)C(=O)C(c1c(C)cc3c(c1O)C(=O)C=CC3=O)=CC2=O | inactive
CCCCCCNC(=O)Oc1ccc(/C(=C(/C)c2ccccc2)c2ccc(OCCN(C)C)cc2)cc1 | active
O=C(NNc1nc2cc(F)c(F)cc2n2cccc12)c1ccncn1 | inactive
Cc1ccccc1NC1CC(=O)N(c2ccc(Cl)cc2Cl)C1=O (centres undefined) | inactive
Oc1ccc(CSc2nnc(-c3ccc(Oc4ccccc4)cc3)o2)c2cccnc12 | inactive
O=C(CCCCCCN1CC(=O)N2[C@@H](c3ccc(Cl)c(F)c3)c3[nH]c4ccccc4c3C[C@H]2C1=O)NO | inactive
CN(C)CCn1c2ccc(N)cc2c2nc3ccccc3nc21 | inactive
CNC(=O)c1cc(Oc2ccc3nc(NC(=O)c4ccc(CN5CCN(C)CC5)c(C(F)(F)F)c4)sc3c2)ccn1 | inactive
CCN1C(=O)N(CC)C2C1NN=C1SC(c3ccccc3)=CC(=O)N12 (centres undefined) | active
COc1cc(/C=C/C(=O)c2ccc(NC(=O)COc3cccc4cccnc34)cc2)cc(OC)c1OC | inactive
COc1cc([C@H]2OC[C@H]3[C@@H]2CO[C@@H]3c2ccc(O)c(OC)c2)ccc1O | inactive
COc1cc(/C=N/n2cnc3oc(-c4ccccc4)cc3c2=N)cc(CN2CCCC2)c1O | active
CCOC(=O)CC(=O)CSC1=NC2C(NN1)N(C)C(=O)N2C (centres undefined) | inactive

----------
Test system: CAKI-1 renal
Measurement Protocol: NCI-60 one-dose screen, 48 h
Conditions Used: 10 µM
The panel holds about 83,000 compounds, 20% with a hit somewhere; the sample as a whole holds those more often. Active and inactive are the calls of the source. Rule for the calls: active = growth percent below 10; inactive = the rest.
Outcome codes: active, inactive

Compound | Discrete Label
COC(=O)[C@@]1(C)CC[C@]2(C)CC[C@]3(C)C(=CC(=O)[C@@H]4[C@@]5(C)Cc6c(n(CC#CCN7CCN(C)CC7)c7ccccc67)C(C)(C)[C@@H]5CC[C@]43C)[C@@H]2C1 | inactive
COc1cc(O)c2c(c1)/C=C/C[C@H](O)[C@H](O)C(=O)/C=C\C[C@H](C)OC2=O | inactive
O=C(/C=C1\C=CN(CCCCF)c2ccccc21)n1ccc2ccccc21 | inactive
O=C(Nc1cc(F)cc2cccnc12)c1cnc(N2CCOCC2)cn1 | inactive
C=C(C)[C@@H]1CC[C@]2(COS(C)(=O)=O)CC[C@]3(C)[C@H](CC[C@@H]4[C@@]5(C)CCCNC(C)(C)[C@@H]5CC[C@]43C)[C@@H]12 | inactive
COc1ccc([C@H]2[C@H](O)C(=O)N2c2cc(OC)c(OC)c(OC)c2)cc1Cl | inactive
Cn1cc(-c2nn3cc(-c4cccnc4)nc3s2)c2cc(F)ccc21 | inactive
CCN(CC)CCN1C(=O)c2c(c3c4cc(Br)ccc4[nH]c3c3ccc4ccccc4c23)C1=O | inactive
C=CCn1c(SCC(=O)Nc2cccc(C(=O)/C=C/c3ccccc3Cl)c2)nc2ccccc2c1=O | inactive
ClC(Cl)c1nc(-c2cccs2)n2nc(-c3ccccc3)cc2n1 | active
COc1ccc(-c2oc3cc(O)cc(O)c3c(=O)c2OC)cc1O | inactive
O=C1Nc2ccc(Br)cc2/C1=N\c1nnc(-c2ccc(Cl)cc2)o1 | inactive
NC(N)=NS(=O)(=O)c1ccc(N=NC2C(=O)NN(c3ccccc3)C2=O)cc1 (stereo not drawn) | inactive
COc1cc(CNC(=O)Cc2ccccc2[N+](=O)[O-])ccc1OCC(=O)NO | inactive
C#C[C@]1(O)CC[C@H]2[C@@H]3CC=C4c5sc(C6CCOCC6)nc5CC[C@]4(C)[C@H]3CC[C@@]21C | inactive
CS(=O)(=O)c1nccc(-c2c(-c3ccc(F)c(OCc4ccc(F)cc4)c3)nc3sccn23)n1 | inactive
C#C[C@]1(O)CC[C@H]2[C@@H]3CC=C4c5sc(C6CC6)nc5CC[C@]4(C)[C@H]3CC[C@@]21C | inactive
O=C1/C(=C/c2ccc([N+](=O)[O-])cc2)SC(=Nc2ccccc2)N1Nc1ccccc1 | inactive
